- Tested on: CAL-12T
- assay.protocol: relative viability (nuclei count vs DMSO), 5 days (fraction); higher = more cells survive
- condition.set: first compound 0.05 µM
Provide the recorded relative viability for the entries that follow.

- CC1(C)CCC(c2ccc(Cl)cc2)=C(CN2CCN(c3ccc(C(=O)NS(=O)(=O)c4ccc(N[C@H](CCN5CCOCC5)CSc5ccccc5)c(S(=O)(=O)C(F)(F)F)c4)cc3)CC2)C1 [Navitoclax] + N=C(N)NC(=N)NCCc1ccccc1 [Phenformin] (partner 250 µM): 0.6
- CC1(C)CCC(c2ccc(Cl)cc2)=C(CN2CCN(c3ccc(C(=O)NS(=O)(=O)c4ccc(N[C@H](CCN5CCOCC5)CSc5ccccc5)c(S(=O)(=O)C(F)(F)F)c4)cc3)CC2)C1 [Navitoclax] + CC(C)C[C@H](NC(=O)[C@H](Cc1ccccc1)NC(=O)c1cnccn1)B(O)O [Bortezomib] (partner 0.002 µM): 0.989
- CC1(C)CCC(c2ccc(Cl)cc2)=C(CN2CCN(c3ccc(C(=O)NS(=O)(=O)c4ccc(N[C@H](CCN5CCOCC5)CSc5ccccc5)c(S(=O)(=O)C(F)(F)F)c4)cc3)CC2)C1 [Navitoclax] + CC(=O)c1c(C)c2cnc(Nc3ccc(N4CCNCC4)cn3)nc2n(C2CCCC2)c1=O [Palbociclib] (partner 0.5 µM): 0.409
- CC1(C)CCC(c2ccc(Cl)cc2)=C(CN2CCN(c3ccc(C(=O)NS(=O)(=O)c4ccc(N[C@H](CCN5CCOCC5)CSc5ccccc5)c(S(=O)(=O)C(F)(F)F)c4)cc3)CC2)C1 [Navitoclax] + CC(=O)Nc1cccc(-n2c(=O)n(C3CC3)c(=O)c3c(Nc4ccc(I)cc4F)n(C)c(=O)c(C)c32)c1 [Trametinib] (partner 0.02 µM): 0.351
- CC1(C)CCC(c2ccc(Cl)cc2)=C(CN2CCN(c3ccc(C(=O)NS(=O)(=O)c4ccc(N[C@H](CCN5CCOCC5)CSc5ccccc5)c(S(=O)(=O)C(F)(F)F)c4)cc3)CC2)C1 [Navitoclax] + C[C@]1(O)C[C@@H](c2nc(-c3ccc4ccc(-c5ccccc5)nc4c3)c3c(N)nccn32)C1 [Linsitinib] (partner 1 µM): 0.775
- CC1(C)CCC(c2ccc(Cl)cc2)=C(CN2CCN(c3ccc(C(=O)NS(=O)(=O)c4ccc(N[C@H](CCN5CCOCC5)CSc5ccccc5)c(S(=O)(=O)C(F)(F)F)c4)cc3)CC2)C1 [Navitoclax] + C[C@@H](Oc1cc(-c2cnn(C3CCNCC3)c2)cnc1N)c1c(Cl)ccc(F)c1Cl [Crizotinib] (partner 1 µM): 0.725

Reported relative viability of CC1(C)CCC(c2ccc(Cl)cc2)=C(CN2CCN(c3ccc(C(=O)NS(=O)(=O)c4ccc(N[C@H](CCN5CCOCC5)CSc5ccccc5)c(S(=O)(=O)C(F)(F)F)c4)cc3)CC2)C1 [Navitoclax] + Nc1nc2[nH]cc(CCc3ccc(C(=O)N[C@@H](CCC(=O)O)C(=O)O)cc3)c2c(=O)[nH]1 [Pemetrexed] (partner 0.2 µM) : 1.23

* * *

Task for the reader: assign each of the following molecules its reported relative viability.
- Test system: LXF-289
- assay.protocol: relative viability (nuclei count vs DMSO), 5 days (fraction); higher = more cells survive
- condition.set: first compound 0.5 µM
Give bare numbers.

Here is how some molecules turned out for relative viability.
• CC1(C)CCC(c2ccc(Cl)cc2)=C(CN2CCN(c3ccc(C(=O)NS(=O)(=O)c4ccc(N[C@H](CCN5CCOCC5)CSc5ccccc5)c(S(=O)(=O)C(F)(F)F)c4)cc3)CC2)C1 [Navitoclax] + N=C(N)NC(=N)NCCc1ccccc1 [Phenformin] (partner 250 µM) = 0.5
• CC1(C)CCC(c2ccc(Cl)cc2)=C(CN2CCN(c3ccc(C(=O)NS(=O)(=O)c4ccc(N[C@H](CCN5CCOCC5)CSc5ccccc5)c(S(=O)(=O)C(F)(F)F)c4)cc3)CC2)C1 [Navitoclax] + Cc1nc(NC(=O)N2CCC[C@H]2C(N)=O)sc1-c1ccnc(C(C)(C)C(F)(F)F)c1 [Alpelisib] (partner 2 µM) = 1.08
• CC1(C)CCC(c2ccc(Cl)cc2)=C(CN2CCN(c3ccc(C(=O)NS(=O)(=O)c4ccc(N[C@H](CCN5CCOCC5)CSc5ccccc5)c(S(=O)(=O)C(F)(F)F)c4)cc3)CC2)C1 [Navitoclax] + C[C@]1(O)C[C@@H](c2nc(-c3ccc4ccc(-c5ccccc5)nc4c3)c3c(N)nccn32)C1 [Linsitinib] (partner 1 µM) = 0.966

In the following, a different molecule is considered.
The reported relative viability of the molecule CC1(C)CCC(c2ccc(Cl)cc2)=C(CN2CCN(c3ccc(C(=O)NS(=O)(=O)c4ccc(N[C@H](CCN5CCOCC5)CSc5ccccc5)c(S(=O)(=O)C(F)(F)F)c4)cc3)CC2)C1 [Navitoclax] + COc1cc2c(Oc3ccc(NC(=O)C4(C(=O)Nc5ccc(F)cc5)CC4)cc3F)ccnc2cc1OCCCN1CCOCC1 [Foretinib] (partner 0.25 µM) was 0.966
